Test system: NCI/ADR-RES
measurement protocol: NCI tumour cell line growth inhibition, 48 h
Activity calls are given as the source filed them. Cut-off read from the data, not from the text of the source: active = GI50 up to about 1.1 µM and inactive = higher.
Outcome codes: 1 (active), 0 (inactive)

- CN(C)CCCNC(=O)CNC(=O)c1cc(NC(=O)c2cc(NC(=O)c3cc(NC(=O)CCNC(=O)c4cc(NC(=O)c5cc(NC(=O)c6nccn6C)cn5C)cn4C)cn3C)cn2C)cn1C: 0
- COc1cc2nc3n(c2cc1OC)C(O)c1c(Cl)nc(SC)nc1S3 (stereo unspecified): 0
- COc1cc2c(cc1O)CCN[C@@]21CS[C@H]2c3c(OC(C)=O)c(C)c4c(c3C(COC1=O)N1C2C2c3c(cc(C)c(OC)c3O)CC([C@@H]1O)N2C)OCO4 (stereo partly specified): 1
- N#Cc1nc(CCC(c2nc(C#N)c(N)o2)N2C(=O)c3ccccc3C2=O)oc1N (stereo unspecified): 0
- CCC/N=C/c1cc(Cc2ccc(O)c(/C=N/CCC)c2)ccc1O: 0
- CC[C@H](C)[C@H]1NC(=O)[C@@H](NC(=O)[C@@H](CC(C)C)N(C)C(=O)C2CCCN2C(=O)[C@H](C)O)[C@@H](C)OC(=O)[C@H](Cc2ccc(OC)cc2)N(C)C(=O)[C@@H]2CCCN2C(=O)[C@H](CCCCNC(=O)OCc2ccccc2)NC(=O)[C@H](C)C(=O)[C@H](C(C)C)OC(=O)C[C@@H]1O (stereo partly specified): 0

====

System: CCRF-CEM
measurement protocol: NCI tumour cell line growth inhibition, 48 h
Calls of active or inactive are those of the source. Cut-off read from the data, not from the text of the source: active = GI50 up to about 1.1 µM and inactive = higher.
Outcome codes: YES (active), NO (inactive)

- CC1CC2C(=O)NC(=O)C2c2[nH]c3ccccc3c21 (configuration not stated): NO
- CCCCCCCCCCCCCCCCCCN(C)C(COC)COP(=O)([O-])OCC[N+](C)(C)C (configuration not stated): NO
- O=C(CC1(O)C(=O)Nc2c(Cl)cc(Cl)cc21)c1ccc(Br)cc1 (configuration not stated): NO
- Oc1ccc2ccccc2c1/N=N/c1ccccc1: NO
- N#CN=C(NCCO)NCCO: NO
- Cc1ccc(S(=O)(=O)N2C[C@](O)(c3ccccc3)[C@H]2C)cc1: NO
- C[C@H]1CC[P+](Cc2ccccc2)(c2ccccc2)C1 (some centres not stated): NO
- COc1ccc(C2SCC(=O)N2c2ccc(-c3ccc(-n4c(-c5ccccc5)nc5ccccc5c4=O)cc3)cc2)cc1 (configuration not stated): NO
- COC(=O)c1cc(NC(=O)Cc2c[nH]c3ccccc23)cn1C: NO
- NNC(=S)N/N=C(/C(=O)Nc1ccc(Cl)c(Cl)c1)C(C1OC(=O)c2ccccc21)[N+](=O)[O-] (configuration not stated): NO
- C=C1CCCC(C)(C)[C@H]1C/C=C1\CCOC1=O: NO
- COc1cc(/C=C2\CC3C4CC[C@H]5C[C@@H](O)CC[C@]5(C)C4CC[C@]3(C)C2=O)cc(OC)c1OC (some centres not stated): NO
- CC(C)=CCOc1ccc(-c2coc3cc4c(c(O)c3c2=O)C=CC(C)(C)O4)cc1: NO
- C[n+]1cc(C(O)c2ccc3c(c2)OCO3)c2ccccc2c1 (configuration not stated): NO
- N#CC(/C(CCC(=O)Nc1ccc(Cl)cc1)=N/NC(=O)c1cc2ccccc2cc1O)c1ccccc1 (configuration not stated): NO
- Nc1ccc2nc3n(c2c1)C(=O)c1ccccc1-3: NO
- CCOc1ccc(/C(C=O)=C(\Cl)c2ccc(OC)cc2)cc1: NO
- O=C(/C=C/c1ccccc1Cl)c1ccc(Cl)c(Cl)c1: NO
- CN(C)C(=S)/N=c1\ssc(=S)n1C1CCCCC1: YES
- NC(CCc1nc(-c2ccccc2)cs1)C(=O)O (configuration not stated): NO
- COc1cc2nc3n(c2cc1OC)C(O)c1c(Cl)nc(SC)nc1S3 (configuration not stated): NO
- CC(=O)Oc1c2c(c3n(c1=O)CCCC3)C(=O)N(c1ccccc1)C2=O: NO

====

System: COLO 205
measurement protocol: NCI tumour cell line growth inhibition, 48 h
Active and inactive are the calls of the source. No stated cut-off is given here; in the data, active = GI50 up to about 1.1 µM and inactive = higher. *1 amine or outer side, *2 acyl side, *3 side chain or, on linkers, in order; H or OH if unused. Where a SMILES comes first, the peptide text is derived from it. Bridges are numbered along the chain shown (N, C = ends). Roman numbers before positions name the chains, in order. [ ]: non-standard residue; d: D form. Actinocin(9to1) = Cc1c2oc3c(C)ccc(C(=O)[*:1])c3nc-2c(C(=O)[*:2])c(N)c1=O; Hyp = O=C(O)[CH]1C[CH](O)CN1; NMeV = CN[CH](C(=O)O)C(C)C; Sar = CNCC(=O)O
Outcome codes: active, inactive

- S=c1[nH]c2c(Cl)c(Cl)c(Cl)c(Cl)c2[nH]1: inactive
- COc1ccc(CN2C(=O)[C@@H]3Cc4c(OC)c(C)c(OC)c(OC)c4[C@H](/C2=C\c2cc(OC)c(OC)c(C)c2OC)N3C(=O)OC(C)C)cc1: inactive
- Cc1ccc(S(=O)(=O)NC(=O)NCCc2ccc(O)c(O)c2)cc1: inactive
- COC(=O)C1=NC(=S)NC(c2ccccc2)C1c1nc2ccccc2s1 (configuration not stated): inactive
- Cc1cs/c(=N\C(P(=O)(O)O)P(=O)(O)O)n1C: inactive
- COc1ccc(NC(=O)CC(=O)N2N=C(N3c4ccccc4Sc4ccccc43)CC2c2ccccc2)cc1 (configuration not stated): inactive
- Cc1c2oc3c(C)ccc(C(=O)NC4C(=O)NC(C(C)C)C(=O)N5CC(O)CC5C(=O)N(C)CC(=O)N(C)C(C(C)C)C(=O)OC4C)c3nc-2c(C(=O)NC2C(=O)NC(C(C)C)C(=O)N3CC(O)CC3C(=O)N(C)CC(=O)N(C)C(C(C)C)C(=O)OC2C)c(N)c1=O (configuration not stated) (I: TV[Hyp][Sar][NMeV] / II: TV[Hyp][Sar][NMeV]; ester I:1-I:C, II:1-II:C; linker I:N-II:N via Actinocin(9to1); configuration not given here): active

====

Entries and their GI50
System: SK-MEL-2
measurement protocol: NCI tumour cell line growth inhibition, 48 h
Activity calls are given as the source filed them. Rule as the data show it: active = GI50 up to about 1.1 µM and inactive = higher.
property label: GI50

• CCC/N=C/c1cc(Cc2ccc(O)c(/C=N/CCC)c2)ccc1O = 3 µM (inactive)
• CC[P+]1(c2ccccc2)[C@@H](C)CC[C@@H]1C = > 100 µM (inactive)
• O=C(O)CNC(=O)c1ccccc1O [SALICYLURIC ACID] = > 100 µM (inactive)
• CCOC(=O)c1nc2ccc(C(F)(F)F)cc2nc1NCc1cc(OC)c(OC)c(OC)c1 = 40.8 µM (inactive)
• CC1=C2C(=O)c3ccccc3C(=O)[C@H]2C[C@@H](N2CCCCCC2=O)O1 = 23.1 µM (inactive)
• C=CCOC(=O)C1=C(C)N=C2N[C@H](CCCCCCCCC)C[C@@H]3CCC1N23 (stereo partly specified) = 19.8 µM (inactive)
• CCC(CCCN)Nc1cc(OC)cc2c(C)ccnc12 (stereo unspecified) = 20.8 µM (inactive)
• Cc1c(C(=O)OCc2ccccc2)[n+]([O-])c2cc(F)c(F)cc2[n+]1[O-] = 1.67 µM (inactive)
• COc1cc2c(cc1OC)C(C(CO)CO)N(CC(O)CCl)CC2 (stereo unspecified) = > 100 µM (inactive)
• Cc1c2ccncc2c(C)c2c1sc1ccccc12 = 21 µM (inactive)
• CCOC(=O)C(C)NC(=O)NC12CC3CC(CC(F)(C3)C1)C2 (stereo unspecified) = > 100 µM (inactive)

====

Test system: T47D
measurement protocol: NCI tumour cell line growth inhibition, 48 h
The source made the active and inactive calls. No stated cut-off is given here; in the data, active = GI50 up to about 1.1 µM and inactive = higher.
Outcome codes: t = active, f = inactive

- CC(C)(C)O/C=C1/C(=O)OC2C[C@@H](O[Si](C)(C)C(C)(C)C)CC12 (some centres undefined): f
- CC(C)=CC1CC(C)C2(CCC3(C)CC4C(C(=O)CC4(C)O)/C(C=O)=C\CC32)O1 (centres undefined): t
- COc1c(O)c(OC)c(C(=O)/C=C/c2ccccc2)c(O)c1OC: f
- COC(=O)CCC(C)[C@H]1CCC2C3C(C[C@H](OC(C)=O)[C@@]21C)[C@@]1(C)CCC2(C[C@H]1C[C@H]3OC(C)=O)OOC1(CCCCCCC1)OO2 (some centres undefined): f
- CS(=O)(=O)N(CC(=O)O)Cc1ccccc1: f
- COC(=O)c1ccccc1Nc1nc(-c2cccs2)nc2cc(OC)c(OC)cc12: f
- [N-]=[N+]=Nc1cc(=O)[nH]nc1-c1ccccc1: f
- CC(=O)Nc1ccc(-c2cc(C(=O)O)c3cc4ccccc4cc3n2)cc1: f
- C[n+]1c(-c2ccc(/C=N\N3CCN(/N=C/c4ccc(-c5cn6ccsc6[n+]5C)cc4)CC3)cc2)cn2ccsc21: f

====

Tested on: UACC-257
measurement protocol: NCI tumour cell line growth inhibition, 48 h
Calls of active or inactive are those of the source. No stated cut-off is given here; in the data, active = GI50 up to about 1.1 µM and inactive = higher.
Outcome codes: Yes (active), No (inactive)

* O=C(O)CCC(=O)Oc1ccc(O)c2c1CCCC2=O | No
* Cc1nc2ccccc2c(=O)n1NC(=O)c1ccccc1O | No
* CCN(CC)CC[n+]1ccc2c(C)c3[nH]c4ccc(O)cc4c3c(C)c2c1 | No
* CC(C)=CC1CC(C)C2(CCC3(C)CC4C(C(=O)CC4(C)O)/C(C=O)=C\CC32)O1 (stereo not given) | Yes
* CC1CCOc2ccc(cc2)/C=N\c2ccc(cc2)-c2ccc(cc2)/N=C\c2ccc(cc2)OCC1 | No
